species on record: Rattus norvegicus; test: DrugMatrix - Regimen: Daily Repeat; type: toxicity, organism-based, Sprague-Dawley; set-up: regimen Daily Repeat, gender Male, age 6-8 weeks; conditions: in vivo, po, 0 mg/kg, 72 h, tissue Plasma, route oral GAVAGE, dose level Control, time 3 day, vehicle 100 % WATER
CREATININE by entry:
metric: CREATININE (mg/dL)

>>> measvalue("O.O.O.O.O.O.[Cl-].[Cl-].[Sr+2] [STRONTIUM CHLORIDE HEXAHYDRATE]")
0.18
>>> measvalue("NNc1nncc2ccccc12 [HYDRALAZINE]")
0.18
>>> measvalue("Cn1c(=O)c2[nH]cnc2n(C)c1=O.O [THEOPHYLLINE]")
0.17
>>> measvalue("CN(C)CC[C@@H](c1ccc(Cl)cc1)c1ccccn1 [DEXCHLORPHENIRAMINE]")
0.18
>>> measvalue("Oc1cccc(O)c1O [PYROGALLOL]")
0.92
>>> measvalue("CN1[C@@H]2CC[C@H]1C[C@@H](OC(=O)C(CO)c1ccccc1)C2 (stereo partly drawn) [ATROPINE]")
0.11
>>> measvalue("CS(=O)(=O)c1ccc([C@@H](O)[C@@H](CO)NC(=O)C(Cl)Cl)cc1 [THIAMPHENICOL]")
0.18
>>> measvalue("CN(C)CCOC(c1ccccc1)c1ccccc1 [DIPHENHYDRAMINE]")
0.18
>>> measvalue("CC(C)(C)CC(C)(C)c1ccc(OCCOCC[N+](C)(C)Cc2ccccc2)cc1.[Cl-] [BENZETHONIUM CHLORIDE]")
0.18
>>> measvalue("C[C@]12C=CC(=O)C=C1CC[C@@H]1[C@@H]2[C@@H](O)C[C@@]2(C)[C@H]1CC[C@]2(O)C(=O)CO [PREDNISOLONE]")
0.18
>>> measvalue("CCN(CC)CCNC(=O)c1cc(S(C)(=O)=O)ccc1OC [TIAPRIDE]")
0.18
>>> measvalue("CC(C)NCC(O)c1ccc(NS(C)(=O)=O)cc1 (stereo not drawn) [SOTALOL]")
0.18
>>> measvalue("Cc1ccc(NC(=O)c2ccc(CN3CCN(C)CC3)cc2)cc1Nc1nccc(-c2cccnc2)n1 [IMATINIB]")
0.18

====

CREATINE PHOSPHOKINASE by entry:
species on record: Rattus norvegicus; test: DrugMatrix - Regimen: Daily Repeat; format: toxicity, organism-based, Sprague-Dawley; design: regimen Daily Repeat, gender Male, age 6-8 weeks; conditions: in vivo, po, 0 mg/kg, 120 h, tissue Plasma, route oral GAVAGE, dose level Control, time 5 day, […]
metric: CREATINE PHOSPHOKINASE (u/L)

>>> measvalue("CO[C@H]1/C=C/O[C@@]2(C)Oc3c(C)c(O)c4c(O)c(c(/C=N/N5CCN(C6CCCC6)CC5)c(O)c4c3C2=O)NC(=O)/C(C)=C\\C=C\\[C@H](C)[C@H](O)[C@@H](C)[C@@H](O)[C@@H](C)[C@H](OC(C)=O)[C@@H]1C")
402.5
>>> measvalue("COc1cc(N)c(Cl)cc1C(=O)NC1CCN(CCCOc2ccc(F)cc2)CC1OC (centres undefined) [CISAPRIDE]")
167.33
>>> measvalue("CC(C)(C)NC(=O)[C@H]1CC[C@H]2[C@@H]3CC[C@H]4NC(=O)C=C[C@]4(C)[C@H]3CC[C@]12C [FINASTERIDE]")
199.33
>>> measvalue("Clc1ccc(COC(Cn2ccnc2)c2ccc(Cl)cc2Cl)cc1 (centres undefined)")
355.33

====

MEAN CORPUSCULAR HEMOGLOBIN CONCENTRATION by entry:
species: Rattus norvegicus; assay: DrugMatrix - Regimen: Daily Repeat; format: toxicity, organism-based, Sprague-Dawley; design: regimen Daily Repeat, gender Male, age 6-8 weeks; settings: in vivo, sc, 0 mg/kg, 72 h, tissue Blood, route subcutaneous, dose level Control, time 3 day, […]
metric: MEAN CORPUSCULAR HEMOGLOBIN CONCENTRATION

>>> measvalue("Oc1c(Cl)cc(Cl)c(Cl)c1Cc1c(O)c(Cl)cc(Cl)c1Cl [HEXACHLOROPHENE]")
"37.22 G/DL"
>>> measvalue("CCN(CC)CCOCCC1=CCC2CC1C2(C)C (centres undefined) [MYRTECAINE]")
"39.65 G/DL"
>>> measvalue("O=C(Nc1ccc(Br)cc1)c1cc(Br)cc(Br)c1O [TRIBROMSALAN]")
"36.97 G/DL"
>>> measvalue("CCC(=O)O[C@]1(C(=O)CCl)[C@@H](C)C[C@H]2[C@@H]3CCC4=CC(=O)C=C[C@]4(C)[C@@]3(F)[C@@H](O)C[C@@]21C [CLOBETASOL PROPIONATE]")
"36.97 G/DL"

====

species on record: Rattus norvegicus; assay: DrugMatrix - Regimen: Daily Repeat; assay type: toxicity, organism-based, Sprague-Dawley; set-up: regimen Daily Repeat, gender Male, age 6-8 weeks; conditions: in vivo, po, 0 mg/kg, 72 h, tissue Plasma, route oral GAVAGE, dose level Control, time 3 day, vehicle 100 % WATER
Please note: true (1) applies when TOTAL BILIRUBIN is 0.2 mg/dL or greater, and false (0) applies otherwise.

>>> assignedclass("CN1[C@@H]2CC[C@H]1C[C@@H](OC(=O)C(CO)c1ccccc1)C2 (stereo partly drawn)")
"true (1)"
>>> assignedclass("CC(C)(C)CC(C)(C)c1ccc(OCCOCC[N+](C)(C)Cc2ccccc2)cc1.[Cl-] [BENZETHONIUM CHLORIDE]")
"false (0)"
>>> assignedclass("CC(C)NCC(O)c1ccc(NS(C)(=O)=O)cc1 (stereo not drawn)")
"true (1)"
>>> assignedclass("Cn1c(=O)c2[nH]cnc2n(C)c1=O.O")
"true (1)"
>>> assignedclass("CN(C)CCOC(c1ccccc1)c1ccccc1 [DIPHENHYDRAMINE]")
"false (0)"
>>> assignedclass("NNc1nncc2ccccc12 [HYDRALAZINE]")
"false (0)"
>>> assignedclass("C[C@]12C=CC(=O)C=C1CC[C@@H]1[C@@H]2[C@@H](O)C[C@@]2(C)[C@H]1CC[C@]2(O)C(=O)CO")
"false (0)"
>>> assignedclass("CN(C)CC[C@@H](c1ccc(Cl)cc1)c1ccccn1")
"false (0)"
>>> assignedclass("Oc1cccc(O)c1O")
"true (1)"

====

organism: Rattus norvegicus; assay: DrugMatrix - Regimen: Daily Repeat; format: toxicity, organism-based, Sprague-Dawley; parameters: regimen Daily Repeat, gender Male, age 6-8 weeks; details: in vivo, po, 1500 mg/kg, 120 h, tissue Blood, route oral GAVAGE, dose level High, time 5 day, vehicle .5 % CMC
// assign 1 if LYMPHOCYTE falls strictly below 90%, else 0 (ties count as 0)

>>> assignedclass("COC(=O)Nc1nc2ccc([S+]([O-])c3ccccc3)cc2[nH]1 (stereo not given)")
0
>>> assignedclass("CC(C)=CCC/C(C)=C/CO")
1

====

species: Rattus norvegicus; assay: DrugMatrix - Regimen: Daily Repeat; format: toxicity, organism-based, Sprague-Dawley; parameters: regimen Daily Repeat, gender Male, age 6-8 weeks; details: in vivo, po, 0 mg/kg, 72 h, tissue Plasma, route oral GAVAGE, dose level Control, time 3 day, vehicle .5 % CMC
metric: SODIUM (MEQ/L)

>>> measvalue("O=C1CN=C(c2ccccc2Cl)c2cc([N+](=O)[O-])ccc2N1")
141.65
>>> measvalue("COC1=C(OC)C(=O)C(CCCCCCCCCCO)=C(C)C1=O")
141.65
>>> measvalue("C[C@H]1O[C@@H](n2cc(F)c(=O)[nH]c2=O)[C@H](O)[C@@H]1O")
141.65
>>> measvalue("CN/C(=N/CCSCc1nc[nH]c1C)NC#N")
141.65
>>> measvalue("CC(=O)Oc1ccc(C(c2ccc(OC(C)=O)cc2)c2ccccn2)cc1")
149.5
>>> measvalue("O=C1C(CC[S+]([O-])c2ccccc2)C(=O)N(c2ccccc2)N1c1ccccc1 (configuration not stated)")
141.02
>>> measvalue("O=C1Nc2ccc(Cl)cc2C(c2ccccc2Cl)=NC1O (configuration not stated)")
141.02
>>> measvalue("Clc1ccccc1CN1CCc2sccc2C1")
149.67
>>> measvalue("COc1ccc(C2C(=O)c3ccccc3C2=O)cc1")
149.67
>>> measvalue("CN(C)[C@@H]1C(O)=C(C(N)=O)C(=O)[C@@]2(O)C(O)=C3C(=O)c4c(O)ccc(Cl)c4[C@@](C)(O)[C@H]3C[C@@H]12")
142.85
>>> measvalue("NC1CCN(c2nc3c(cc2F)c(=O)c(C(=O)O)cn3-c2ccc(F)cc2F)C1 (configuration not stated)")
152.33
>>> measvalue("COc1cc2nc(N3CCN(C(=O)c4ccco4)CC3)nc(N)c2cc1OC")
141.02
>>> measvalue("CCN(CC)CCOc1ccc(/C(=C(/Cl)c2ccccc2)c2ccccc2)cc1")
141.28
>>> measvalue("Cn1c(=O)c2c(ncn2CC(O)CO)n(C)c1=O (configuration not stated)")
142.85
>>> measvalue("CN(C/C=C/C#CC(C)(C)C)Cc1cccc2ccccc12")
152.33
>>> measvalue("CC(C(=O)O)c1ccc2oc(-c3ccc(Cl)cc3)nc2c1 (configuration not stated)")
145.83
>>> measvalue("NCCCC(O)(P(=O)(O)O)P(=O)(O)O")
149.67
